test system: NCI-H23 lung; assay: NCI-60 one-dose screen, 48 h (100 = growth as untreated, 0 = no growth, -100 = all killed); conditions: 10 µM unless noted
This is part of a sample that, as a whole, favours compounds with a hit. Of some 83,000 tested, about 20% had one in any assay.
ASSAY ENDPOINT: growth (%)
# output: bare number, implied unit %

Solved cases (2 shown):
- MOLECULE: "O=C1Nc2ccccc2/C1=C/C(=N/c1nnc(-c2ccc(Cl)cc2)s1)c1ccccc1"
  growth [%]: 29.1
- MOLECULE: "COc1ccc(-c2nn(-c3ccccc3)cc2/C=C2\\SC(=O)NC2=O)cc1"
  growth [%]: 94.8

# COc1ccc(-c2cc(-c3cccnc3)nc3sc4c(=O)n(-c5ccc(C)cc5)cnc4c23)cc1OC with NCI-H23 lung: growth is 95.7

Lab entry: NCI-H23 lung assay, molecule Nc1nc2c(c3ncccc13)C(c1cccc(Br)c1)Cc1ncccc1-2 (stereo unspecified) , growth = 39.5

* * *

system: UO-31 renal; assay: NCI-60 one-dose screen, 48 h (100 = growth as untreated, 0 = no growth, -100 = all killed); settings: 10 µM unless noted
About 83,000 compounds went through this panel and 20% of them were active in at least one assay; those are over-represented in the sample as a whole.
hey, just use y if measured growth is less than 50%, otherwise n

# check: growth < 50% for O=C1Nc2ccc(Br)cc2C12CC(c1ccccc1)=NN2 (stereo not drawn)
y

Criterion: growth strictly below 50%. Is it met by CCOC(=O)N1CCN(c2nc(Nc3cc(C)[nH]n3)c3ccccc3n2)CC1 ?
y

Does the reported growth of C=C1C(=O)O[C@H]2[C@H]1CC/C(Cn1cc(Cn3ccc4ccccc43)nn1)=C\CC[C@@]1(C)O[C@@H]21 stay below 50%?
y

Would you kindly verify if growth of Cc1ccc(NC(=O)c2sc3nc4c(cc3c2N)C(=O)CCC4)cc1C is strictly less than 50%?
n

Hi there! Is growth for O=C1C=CC(=O)c2c1nc1n2CCCC1 below 50%, do you know?
n

For this compound, is growth lower than 50%? CC1CN(Cc2ccco2)C(=S)N(c2ccccc2)C1=O (stereo not drawn)
n

is_below(growth, 50%) for O=C1C(=O)N(CCCCn2cc(CO)nn2)c2ccccc21 ?
n

Hi there! Is growth for COc1cc(-c2c3sc(=O)[nH]c3nc3c2c(=O)[nH]n3C(C)C)cc2c1OCO2 below 50%, do you know?
n

# TODO verify growth < 50% strictly for this compound: COc1ccc(C/C(C)=C(\c2ccc(OCCN3CCCCCC3)cc2)c2ccc(OC(=O)C3CCCCC3)cc2)cc1
y

Quick check: growth of COc1ccc(-c2nc(Nc3cc(C)[nH]n3)c3ccccc3n2)cc1 under 50%?
y

Hi there! Is growth for CNc1cc2nc3cc(NC)c(C)cc3cc2cc1C below 50%, do you know?
y

Please let me know if COc1ccc(/C(=C/c2ccc3ccccc3c2)c2nn[nH]n2)cc1OC shows growth below 50%.
y

* * *

system: SK-MEL-2 melanoma; experiment: NCI-60 one-dose screen, 48 h (100 = growth as untreated, 0 = no growth, -100 = all killed); conditions: 10 µM unless noted
About 83,000 compounds went through this panel and 20% of them were active in at least one assay; those are over-represented in the sample as a whole.
Outcome label depends on growth relative to 40%: at/above gives Satisfied, below gives Not satisfied.

Some solved entries appear below for comparison.
- COMPOUND: "O=C1CCc2c(sc3[nH]c(=S)n(Cc4ccccc4)c(=O)c23)C1"
  GROUP LABEL: "Not satisfied"
- COMPOUND: "COc1ccc(-n2c(C)nc3c(c(C)nn3-c3ccccc3)c2=O)cc1"
  GROUP LABEL: "Not satisfied"

Record COc1cc(OC)c(/C=C/S(=O)(=O)Cc2cnc(OC)c(N)c2)c(OC)c1 ; criterion: growth no lower than 40%. Met?
Not satisfied

For this compound, is measured growth 40% or higher? CNCCCn1c2c(c3ccc([N+](=O)[O-])cc3c1=O)C(=O)c1cc(OC)cnc1-2
Not satisfied

Has CC[C@H](CO)Nc1nc(NCc2ccccc2)n2ncc(C(C)C)c2n1 a recorded growth greater than or equal to 40%?
Not satisfied

State whether the measured growth reaches 40%, counting equality as reaching it, for CCOC(=O)C(CC)n1c(=O)c2cc(OC)c(OC)cc2c2cnc3[nH]ccc3c21 (stereo not given)
Satisfied

Does growth meet or surpass 40% for COC1C/C(=N\O)C2OC(c3ccccc3)OCC2O1 (stereo not given) ?
Satisfied

State whether the measured growth reaches 40%, counting equality as reaching it, for CN1CCCCC1CCN1c2ccccc2Sc2ccc(Br)cc21 (stereo not given)
Satisfied

State whether the measured growth reaches 40%, counting equality as reaching it, for COc1cc(C(=O)/C=C/c2c(C)n([O-])c3ccc(C)cc3[n+]2=O)cc(OC)c1OC
Satisfied

# bool: growth of COc1cc(OC)c(/C=C/C(=O)c2c(OC)cc(OC)cc2OC)c(OC)c1 >= 40%
Not satisfied

Does CC(C)(C)c1nn(-c2ccccc2)c2c1CC1(CN2Cc2ccc3c(c2)OCO3)C(=O)c2ccccc2C1=O have a reported growth of at least 40%?
Satisfied

Confirm if growth reported for the compound O=C(O)c1cn(C2CC2)c2cc(N3CCN(Cc4nc5c(cnn5-c5ccc([N+](=O)[O-])cc5)c(=O)[nH]4)CC3)c(F)cc2c1=O is 40% or above.
Satisfied

Say whether CCCCNP1(NCCCC)=NP(NCCCC)(NCCCC)=NP(NCCCC)(NCCCC)=NP(NCCCC)(NCCCC)=N1 shows growth of 40% or more.
Not satisfied

Say whether COc1cccc(/C=C\C(=O)c2ccccc2)c1 shows growth of 40% or more.
Satisfied

Entry CCOC(=O)c1cnc2ccc(Br)cc2c1Nc1cccc(S(=O)(=O)NC)c1 : is its growth no less than 40%?
Satisfied

Quick check: does COc1ccc(C(=O)c2sc3nc4c(cc3c2N)CCCC4)cc1OC have growth greater than or equal to 40%?
Not satisfied

Identify whether the reported growth of the following compound is 40% or greater: COc1cc2c(=O)n(CC3CCCCC3)c3c4cc[nH]c4ncc3c2cc1OC
Satisfied

Is it the case that CN1CCN(Cc2ccc(NC(=O)c3[nH]ncc3Nc3ncnc4sccc34)cc2)CC1 has growth reaching or exceeding 40%?
Not satisfied

Confirm if growth reported for the compound CC1=CC(=O)CC(C)(C)[C@@]1(O)/C=C/[C@@H](C)O is 40% or above.
Satisfied

* * *

# growth listing for each entry below
test system: ACHN renal; test: NCI-60 one-dose screen, 48 h (100 = growth as untreated, 0 = no growth, -100 = all killed); conditions: 10 µM unless noted
This is part of a sample that, as a whole, favours compounds with a hit. Of some 83,000 tested, about 20% had one in any assay.
Provide only the numeric value, understood in %.

- COMPOUND: "O=C(Cc1ccccc1)c1ccc(Cl)cc1"
  growth [%]: 103
- COMPOUND: "O=C(Nc1ccc(CN2CCOCC2)cc1)c1[nH]ncc1Nc1ncnc2sccc12"
  growth [%]: 2.49
- COMPOUND: "CC(C)(C)c1nn(-c2ccccc2)c2c1CC1(CN2Cc2ccc3c(c2)OCO3)C(=O)c2ccccc2C1=O"
  growth [%]: 89.9
- COMPOUND: "Nc1nc2c(c3ncccc13)C(c1ccc(Cl)c(Cl)c1)Cc1ncccc1-2 (stereo unspecified)"
  growth [%]: 30.2
- COMPOUND: "COc1cc(C#N)cc(OC)c1OCCN(CCOc1c(OC)cc(C#N)cc1OC)S(=O)(=O)c1ccc(C)cc1"
  growth [%]: 97.5
- COMPOUND: "COc1c(Cl)cc(Cl)cc1Cl"
  growth [%]: 112
- COMPOUND: "S=c1[nH]nc(CSc2ncnc3c2c(-c2ccccc2)cn3-c2ccc(Cl)cc2)o1"
  growth [%]: 92.7
- COMPOUND: "CS(CCCCN=C=S)=NC(=O)c1c(F)c(F)c(F)c(F)c1F (stereo unspecified)"
  growth [%]: 52.4

Noted growth for O=C(CO[N+](=O)[O-])Nc1ccc(C(=O)/C=C/c2ccc(Cl)cc2)cc1 , tested on ACHN renal: 62.3

// returns growth for c1ccc2c(Nc3cccc4ccccc34)cccc2c1 with ACHN renal; value = 79.1

// growth (ACHN renal) for O=C([C@@H](COCc1ccccc1)N1C(=O)[C@@H](N2C(=O)OC[C@@H]2c2ccccc2)[C@H]1/C=C/c1ccccc1)N1CCC(CCN2CCCCC2)CC1 = 99

* * *

The entries below are paired with their reported growth.
test system: OVCAR-4 ovarian; assay: NCI-60 one-dose screen, 48 h (100 = growth as untreated, 0 = no growth, -100 = all killed); conditions: 10 µM unless noted
About 83,000 compounds went through this panel and 20% of them were active in at least one assay; those are over-represented in the sample as a whole. Active and inactive are the calls of the source. The calls were made as follows: active = growth percent below 10; inactive = the rest.

Solved cases below.
- COMPOUND: "ClC1=C2NC=NC2n2c(nnc2-c2ccc(Cl)cc2)N1 (stereo not given)"
  growth: "116% (inactive)"
- COMPOUND: "Cc1cc(Nc2nc(N3CCN(C)CC3)nc3ccccc23)n[nH]1"
  growth: "54.5% (inactive)"

// field: growth; key: CC1=C(C)C(=O)OC([C@](C)(O)[C@]2(O)CC[C@@]3(O)[C@@H]4C[C@H]5O[C@]56CC=CC(=O)[C@]6(C)[C@H]4CC[C@]23COC(=O)c2ccc(C)o2)C1 (stereo not given in full) ; value = -32.9% (active)

The recorded growth for entry O=C1Nc2ccc(Br)cc2C12CC(c1ccccc1)=NN2 (stereo not given) equals 67.5% (inactive)

growth in this record for CC(=O)C1=C(O)C=C2Oc3c(C(=O)/C=C/c4cc(C(F)(F)F)cc(C(F)(F)F)c4)c(O)c(C)c(O)c3[C@]2(C)C1=O : 12.5% (inactive)

The compound listed as O=C(Nc1nc(-c2ccccc2)cc(-c2ccc(Cl)cc2)n1)c1ccncc1 shows growth equal to 90.2% (inactive)

Memo: CCCCCCNC(=O)Oc1ccc(/C(=C(\C)c2ccccc2)c2ccc(OCCN(CC)CC)cc2)cc1 , reported growth: 64.4% (inactive)

Given item CCCCN(CCCC)Cc1c(C)[nH]c2cc(OC)ccc2c1=O , the value recorded as its growth is 106% (inactive)

Field growth (entry CS(=O)CCCCCN=C=S (stereo not given) ) reads 21.4% (inactive)

The compound identified as COc1ccc(-c2cc(-c3cccnc3)nc3sc4c(=O)n(-c5ccc(C)cc5)cnc4c23)cc1OC registered its growth at 92.3% (inactive)
